Source of measurements: a melting point compilation (Tetko et al.; mined from patent text by program, amines drawn as free bases though some values may be those of a salt)

# reported melting point; entries follow

Here is how some compounds turned out for melting point.
compound	melting point
CSCC[C@H](NC(=O)[C@@H](N)CC(C)C)[C@@H](O)c1nccs1	83 to 85 °C
Nc1nc2c(Cl)cc(C(F)(F)F)cc2[nH]c1=O	270 to 272 °C
CC(C)c1c(C=C(Br)Br)c(-c2ccc(F)cc2)n2ccccc12	118 to 120 °C
CS(=O)(=O)Nc1ccc(C(=O)C2CCN(CCc3cnc4ccccc4n3)CC2)cc1	156 to 157 °C

Then there is this compound:
For CC1(C)Oc2ccc(C#N)cc2C(n2nc(O)ccc2=O)C1O (stereo unspecified) the compound record lists melting point as 251 to 252 °C
